assay: Inhibition of sialyltransferase (unknown origin); parameters: species or system Homo sapiens
EXPERIMENTAL ENDPOINT: IC50 (µM)
// return numeric value only (unit: µM, not printed)

What IC50 value was documented for this molecule, O=C(O)c1cc(O)c(O)c(O)c1 ?
19

====

target: CMP-N-acetylneuraminate-beta-galactosamide-alpha-2,3-sialyltransferase 1 (Homo sapiens, UniProt Q11201)
Sequence (Q11201 whole entry): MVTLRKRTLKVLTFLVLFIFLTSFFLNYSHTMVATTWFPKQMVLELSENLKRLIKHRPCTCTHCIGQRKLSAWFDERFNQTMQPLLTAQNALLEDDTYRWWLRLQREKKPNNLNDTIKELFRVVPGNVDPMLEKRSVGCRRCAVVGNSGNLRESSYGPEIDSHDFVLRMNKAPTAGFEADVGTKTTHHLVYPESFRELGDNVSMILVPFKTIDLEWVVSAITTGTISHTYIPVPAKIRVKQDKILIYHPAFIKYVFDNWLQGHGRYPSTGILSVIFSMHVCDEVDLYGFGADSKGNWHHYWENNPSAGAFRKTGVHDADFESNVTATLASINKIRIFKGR
EXPERIMENTAL ENDPOINT: pIC50
// scale note: pIC50 = -log10(conc_M); give the bare number

What pIC50 value was documented for this compound, C[C@H](CCC(=O)O)[C@H]1CC[C@H]2[C@@H]3CC[C@@H]4C[C@H](O)CC[C@]4(C)[C@H]3CC[C@]12C [LITHOCHOLIC ACID] ?
4.68

Next entry: C[C@H](CCC(=O)O)[C@H]1CC[C@H]2[C@@H]3CC[C@@H]4C[C@H](OC(=O)[C@H](CCC(=O)O)Nc5ccc([N+](=O)[O-])c6nonc56)CC[C@]4(C)[C@H]3CC[C@]12C
6.06

Next entry: C[C@@H]1CC[C@H]2C(C)(C)[C@H](O)CC[C@]2(C)[C@@]12Cc1c(O)cc3c(c1O2)COC3=O
4.52
